Values were extracted from ChEMBL document CHEMBL1201862.

# Target Or System: UniProtKB P9WQ59
# Sequence (P9WQ59 whole entry): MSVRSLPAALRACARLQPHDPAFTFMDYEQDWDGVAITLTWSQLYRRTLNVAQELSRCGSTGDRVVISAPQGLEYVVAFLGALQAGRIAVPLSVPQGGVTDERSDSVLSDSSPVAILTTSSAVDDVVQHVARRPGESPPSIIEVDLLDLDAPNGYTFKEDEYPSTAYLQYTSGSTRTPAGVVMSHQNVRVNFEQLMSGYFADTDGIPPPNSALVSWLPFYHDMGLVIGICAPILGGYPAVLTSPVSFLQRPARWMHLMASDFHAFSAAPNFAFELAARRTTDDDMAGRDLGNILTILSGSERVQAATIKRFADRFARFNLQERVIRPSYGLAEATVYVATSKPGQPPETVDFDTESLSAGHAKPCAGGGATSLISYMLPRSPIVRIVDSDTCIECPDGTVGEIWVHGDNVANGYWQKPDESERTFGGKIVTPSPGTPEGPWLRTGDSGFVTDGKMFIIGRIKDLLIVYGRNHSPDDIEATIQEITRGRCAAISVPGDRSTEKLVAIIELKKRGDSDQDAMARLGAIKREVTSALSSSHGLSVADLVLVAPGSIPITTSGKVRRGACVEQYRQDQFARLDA
# Method Notes: Fluorescence polarization aasay to screen for inhibitors that compete for the binding of FadD28 to a bisubstrate Measured in Biochemical System Using Plate Reader - 2147-01_Inhibitor_Dose_CherryPick_Activity.
# Format: functional, Mycobacterium tuberculosis H37Rv
Calls of active or inactive are those of the source.
Mark one answer only. Choices: YES (active), NO (inactive)

Reference set, count: 3
COc1cc(/C=C2/C(=O)NN(c3cccc(Cl)c3)C2=O)cc(Br)c1O = NO
CN1CCN(C2=C(Cl)C(=O)c3ccccc3C2=O)CC1 = NO
CCOC(=O)C1CCCN(C(=O)c2cc(Nc3ccc(OC)cc3)nc3ccccc23)C1 (centres undefined) = YES

**Q:** Could you kindly confirm the outcome this assay logged for C/N=c1\scc(-c2ccc(F)cc2)n1/N=C/c1ccc(O)c(O)c1 ?
**A:** YES

---

# Target Or System: Cysteine protease ATG4B (Homo sapiens, UniProt Q9Y4P1);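 also: Fluorescence-based dose-response confirmation assay measuring inhibition of ATG4B activity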
# Sequence (Q9Y4P1 whole entry): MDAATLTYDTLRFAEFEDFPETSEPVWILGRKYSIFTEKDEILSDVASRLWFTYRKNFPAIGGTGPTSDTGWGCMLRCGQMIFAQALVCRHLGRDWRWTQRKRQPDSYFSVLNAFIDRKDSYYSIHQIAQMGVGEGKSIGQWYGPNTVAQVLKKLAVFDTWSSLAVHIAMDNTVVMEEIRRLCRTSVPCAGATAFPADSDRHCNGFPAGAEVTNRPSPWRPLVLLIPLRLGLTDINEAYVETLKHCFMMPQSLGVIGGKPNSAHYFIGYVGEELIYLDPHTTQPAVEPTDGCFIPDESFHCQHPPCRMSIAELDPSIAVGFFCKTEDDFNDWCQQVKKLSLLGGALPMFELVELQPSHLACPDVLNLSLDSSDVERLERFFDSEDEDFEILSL
# Format: functional
The source made the active and inactive calls.
Mark one answer only. Choices: active, inactive

CN1CCN(C2=C(Cl)C(=O)c3ccccc3C2=O)CC1 = active

**Q:** Could you kindly confirm the outcome this assay logged for O=C(O)Cc1sc(NC2CCCCC2)nc1-c1ccc(Cl)cc1 ?
**A:** inactive

**Q:** Could you kindly confirm the outcome this assay logged for CCCc1cc(=O)[nH]c(SCC(=O)N2N=C(c3ccc(Cl)cc3)CC2c2ccco2)n1 (centres undefined) ?
**A:** inactive

**Q:** Could you kindly confirm the outcome this assay logged for CC1CC(C)CN(C(=O)C2CCN(S(=O)(=O)c3ccc4c(c3)CC(C)N4C(=O)C3CC3)CC2)C1 (centres undefined) ?
**A:** active

---

# Method Notes: intracellular Trypanosoma cruzi inhibitors in host cells – cell-based, plate reader, cherry-pick samples, set 3, dose response (AID 651818);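 also: compounds incubated with infected cells for about four days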
# Assay type: functional
The source made the active and inactive calls.
Endpoint Name: AC50

As a guide, the following entries are already answered.
C[C@@H]1CN([C@H](C)CO)C(=O)c2cccc(NC(=O)Nc3ccc(C(F)(F)F)cc3)c2O[C@H]1CN(C)C(=O)Nc1ccc2c(c1)OCO2 = 6.12 µM (active)
COc1ccc(S(=O)(=O)Nc2ccc3c(c2)CC(=O)N([C@H](C)CO)C[C@H](C)[C@H](CN(C)Cc2ccc(C(=O)Nc4ccccc4N)cc2)O3)cc1 = 3.19 µM (active)
C[C@H](CO)N1C[C@H](C)[C@H](CN(C)Cc2ccc(Oc3ccccc3)cc2)Oc2c(NC(=O)c3cnccn3)cccc2C1=O = 5.22 µM (active)
C[C@@H]1CCCCO[C@H](CN(C)S(=O)(=O)c2ccc(F)cc2)[C@@H](C)CN([C@H](C)CO)C(=O)c2cc(NC(=O)Nc3ccc(C(F)(F)F)cc3)ccc2O1 = 3.61 µM (active)
COc1ccc(S(=O)(=O)N(C)C[C@@H]2OCCCC[C@@H](C)Oc3ccc(NC(=O)Nc4ccc(C(F)(F)F)cc4)cc3C(=O)N([C@H](C)CO)C[C@@H]2C)cc1 = 5.92 µM (active)

Consider now this further compound.
**Q:** Indicate the recorded AC50 value for this compound: C[C@@H]1CN([C@H](C)CO)C(=O)Cc2cc(NC(=O)C3CCCCC3)ccc2O[C@H]1CN(C)Cc1ccc(Oc2ccccc2)cc1
**A:** 2.45 µM (active)

---

# Target Or System: Dual specificity tyrosine-phosphorylation-regulated kinase 1A (Rattus norvegicus)
# Assay type: biochemical, Homo sapiens
Activity calls are given as the source filed them.
Hi there, I'd appreciate the recorded AC50 for every entry that follows.

For every item in the list below, what is its measured AC50?
1. CCO/C(=C/c1sc2ccc(OC)cc2[n+]1CCCS(=O)(=O)[O-])CC
2. CCCCCCCCCCCCCCCC[N+](C)(C)CCN(Cc1ccc(OC)cc1)c1ncccn1 [THONZONIUM BROMIDE]
3. COc1cc(/C=C2/SC(=O)NC2=O)ccc1Oc1ccc([N+](=O)[O-])cc1[N+](=O)[O-]
4. CN1CCN(C2=C(Cl)C(=O)c3ccccc3C2=O)CC1

**A:**
["9.02 µM (active)", "9.42 µM (active)", "0.992 µM (active)", "1.03 µM (active)"]

---

# System: Streptococcus
# Method Notes: Group A Streptococcus viability loss, dose response, counter-screen for streptokinase expression inhibitor project, luminescence, BacTiterGlo (AID 1915);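 also: potency for reduction of bacterial viability or growth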
# Type: functional, organism-based
Active and inactive are the calls of the source.
Endpoint Name: EC50

As a guide, the following entries are already answered.
Fc1ccc(-n2cc(-c3ccccc3)c3c(S)ncnc32)cc1 = > 150 µM (not active)
O=C(CN(C(=O)Cn1nnc(-c2ccccc2F)n1)c1cccc2c1CCCC2)NCc1ccccc1 = > 150 µM (not active)
CCCOc1ccc(C(=O)NNC(=S)NC(=O)c2ccccc2)cc1 = 0.762 µM (active)
Oc1[nH]c2ccccc2c1N=NC(=S)N1CCOCC1 = 5.64 µM (active)

**Q:** Indicate the recorded EC50 value for this compound: O=C(c1cc(-c2ccc(Br)cc2)nc2ccccc12)N1CCN(c2ccccc2O)CC1
**A:** 25.4 µM (inconclusive)

---

Hi there, I'd appreciate the recorded IC50 for every entry that follows.
# Target Or System: Nonstructural protein 1 (Influenza A virus, UniProt Q194T2)
# Sequence (Q194T2 whole entry): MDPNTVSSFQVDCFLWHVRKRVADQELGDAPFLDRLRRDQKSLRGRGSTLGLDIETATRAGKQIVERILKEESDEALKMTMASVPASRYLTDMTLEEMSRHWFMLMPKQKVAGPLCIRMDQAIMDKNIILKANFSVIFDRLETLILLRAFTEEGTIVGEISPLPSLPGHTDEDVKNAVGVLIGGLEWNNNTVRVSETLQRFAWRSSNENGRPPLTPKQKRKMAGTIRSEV
# Format: functional, Influenza A virus (A/California/07/2009(H1N1))
The source made the active and inactive calls.

CCN(CCCl)c1cc(CN(C)C)cc(NC(=O)c2ccc(C(=O)Nc3cc(CN(C)C)cc(N(CC)CCCl)c3)cc2)c1 = 7.89 µM (active)

For every item in the list below, what is its measured IC50?
1. O=C(Cn1cnc([N+](=O)[O-])n1)N/N=C/c1ccccc1O
2. Oc1[nH]c2ccccc2c1N=NC(=S)N1CCOCC1
3. N#C/C(=C\C1=C(N2CCOCC2)C(=C\c2ccccc2)/CC1)C(=O)Nc1ccccc1F
4. COc1ccc(N2CC(C(=O)N/N=C/c3cc([N+](=O)[O-])ccc3O)CC2=O)cc1 (stereo not given)

**A:**
9.05 µM (active)
4.88 µM (active)
13.3 µM (active)
17.8 µM (active)

---

# System: Streptococcus sp. 'group A'
# Method Notes: growth inhibition of control SK(-) GAS strain, dose response, counter-screen for streptokinase expression inhibitor project, luminescence, kanamycin, BacTiterGlo, confirmation (AID 1900)
# Format: functional, organism-based
Calls of active or inactive are those of the source.
Hi there, I'd appreciate the recorded EC50 for every entry that follows.

As a guide, the following entries are already answered.
Cc1nnc(-c2ccccc2)c(=O)n1/N=C/c1c(O)ccc2ccccc12 = 2.7 µM (active)
CCc1ccc(-c2cc(C(=O)N/N=C/c3c[nH]c4ccccc34)[nH]n2)cc1 = 7.37 µM (active)
O=C(c1cc(-c2ccc(Br)cc2)nc2ccccc12)N1CCN(c2ccccc2O)CC1 = 7.53 µM (active)
Cc1cc(N/N=C\c2ccc(Br)cc2)nc(-n2nc(C)cc2C)n1 = 1.01 µM (active)
O=[N+]([O-])c1ccc(O)c(-c2nc(-c3ccccc3)c(-c3cccs3)[nH]2)c1 = 1.23 µM (active)

For every item in the list below, what is its measured EC50?
1. CN1/C(=C\C(=O)Nc2ccc(Cl)cc2)C(C)(C)c2ccccc21
2. C/C(=N\NC(=O)COc1ccccc1-c1ccccc1)c1ccc(O)cc1O

**A:**
1: 9.32 µM (active); 2: 3.01 µM (active)

---

Hi there, I'd appreciate the recorded EC50 for every entry that follows.
# Target Or System: Peroxisome proliferator-activated receptor gamma/Nuclear receptor coactivator 2 (Homo sapiens);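 also: agonist potency for raising coactivator recruitment to the receptor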
# Sequence (P37231 whole entry): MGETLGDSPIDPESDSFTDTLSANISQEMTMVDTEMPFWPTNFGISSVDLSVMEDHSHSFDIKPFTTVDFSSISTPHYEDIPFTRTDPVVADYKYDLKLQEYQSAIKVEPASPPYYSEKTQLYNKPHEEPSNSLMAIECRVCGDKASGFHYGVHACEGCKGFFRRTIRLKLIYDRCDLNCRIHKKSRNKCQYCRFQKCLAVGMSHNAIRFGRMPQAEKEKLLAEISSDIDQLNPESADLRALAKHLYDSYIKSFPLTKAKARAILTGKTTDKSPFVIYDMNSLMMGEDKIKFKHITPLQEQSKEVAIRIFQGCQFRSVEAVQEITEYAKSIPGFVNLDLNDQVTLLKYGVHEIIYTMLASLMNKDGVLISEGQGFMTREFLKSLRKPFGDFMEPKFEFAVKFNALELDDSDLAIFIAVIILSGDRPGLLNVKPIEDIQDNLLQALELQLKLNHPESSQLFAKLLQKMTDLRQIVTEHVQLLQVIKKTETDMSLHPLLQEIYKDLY
# Sequence (Q15596 whole entry, further chain): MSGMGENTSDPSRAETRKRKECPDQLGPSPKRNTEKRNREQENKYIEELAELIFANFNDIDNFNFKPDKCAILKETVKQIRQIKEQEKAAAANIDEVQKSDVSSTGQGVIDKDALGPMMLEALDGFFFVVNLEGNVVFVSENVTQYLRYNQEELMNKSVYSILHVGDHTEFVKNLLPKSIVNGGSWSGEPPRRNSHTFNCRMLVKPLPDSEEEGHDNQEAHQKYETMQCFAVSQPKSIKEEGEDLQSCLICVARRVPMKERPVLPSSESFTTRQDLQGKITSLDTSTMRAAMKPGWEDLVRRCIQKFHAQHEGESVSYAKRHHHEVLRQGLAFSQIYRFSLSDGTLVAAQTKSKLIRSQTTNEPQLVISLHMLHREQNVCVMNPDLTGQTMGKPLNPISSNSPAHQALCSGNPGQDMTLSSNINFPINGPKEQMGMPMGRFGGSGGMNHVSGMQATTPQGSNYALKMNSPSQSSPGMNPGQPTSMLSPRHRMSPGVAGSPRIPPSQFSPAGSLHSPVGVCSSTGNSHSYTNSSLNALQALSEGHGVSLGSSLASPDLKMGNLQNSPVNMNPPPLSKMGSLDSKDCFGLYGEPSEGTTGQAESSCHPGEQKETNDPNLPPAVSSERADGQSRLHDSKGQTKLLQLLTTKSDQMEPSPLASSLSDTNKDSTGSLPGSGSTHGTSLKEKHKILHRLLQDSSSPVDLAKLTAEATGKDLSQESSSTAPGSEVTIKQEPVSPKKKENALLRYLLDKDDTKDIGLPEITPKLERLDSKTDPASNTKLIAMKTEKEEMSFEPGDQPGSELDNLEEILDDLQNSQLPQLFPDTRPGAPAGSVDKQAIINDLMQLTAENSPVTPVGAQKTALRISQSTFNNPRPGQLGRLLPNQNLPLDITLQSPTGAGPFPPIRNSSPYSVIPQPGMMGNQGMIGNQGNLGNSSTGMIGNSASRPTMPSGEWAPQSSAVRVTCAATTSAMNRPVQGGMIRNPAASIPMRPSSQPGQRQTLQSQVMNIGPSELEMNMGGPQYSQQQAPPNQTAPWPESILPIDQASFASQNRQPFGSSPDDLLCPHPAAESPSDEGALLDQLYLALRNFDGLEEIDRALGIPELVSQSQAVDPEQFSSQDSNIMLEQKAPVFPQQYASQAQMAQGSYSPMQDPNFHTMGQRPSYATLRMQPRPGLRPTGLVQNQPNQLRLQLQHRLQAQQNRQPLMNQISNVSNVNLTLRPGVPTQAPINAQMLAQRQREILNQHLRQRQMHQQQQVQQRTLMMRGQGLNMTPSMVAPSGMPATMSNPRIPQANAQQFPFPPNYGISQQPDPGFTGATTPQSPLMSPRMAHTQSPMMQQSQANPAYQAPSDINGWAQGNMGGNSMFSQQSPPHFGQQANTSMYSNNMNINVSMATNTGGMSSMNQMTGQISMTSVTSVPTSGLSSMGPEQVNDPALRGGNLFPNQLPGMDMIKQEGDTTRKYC
# Format: functional

CCOC(=O)c1s/c(=N\C(=O)c2ccc(OC)c(OC)c2)n(C)c1C = 12.2 µM (not active)
O=C(Nc1cccc(NS(=O)(=O)c2ccc(S(=O)(=O)NC3CC3)cc2)c1)c1ccccn1 = > 79.4 µM (not active)
O=C(Cc1nc2ccccc2nc1O)c1ccccc1 = > 79.4 µM (not active)

Consider now this further molecule.
**Q:** Indicate the recorded EC50 value for this molecule: CC(C)OC(=O)CSc1nc2cc3c(cc2cc1C#N)OCO3
**A:** 10.2 µM (not active)

---

# Target Or System: Sentrin-specific protease 8 (Homo sapiens);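 also: luminescence read-out of SENP8 inhibition, dose-response confirmation following an ultra-high-throughput screen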
# Sequence (Q96LD8 whole entry): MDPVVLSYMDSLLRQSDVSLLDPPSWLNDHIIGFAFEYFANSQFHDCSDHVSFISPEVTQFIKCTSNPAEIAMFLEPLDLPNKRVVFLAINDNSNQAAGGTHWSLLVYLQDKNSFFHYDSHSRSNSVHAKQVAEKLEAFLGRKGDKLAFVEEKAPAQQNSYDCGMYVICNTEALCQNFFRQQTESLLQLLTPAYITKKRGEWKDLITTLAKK
# Type: functional
The source made the active and inactive calls.
Hi there, I'd appreciate the recorded IC50 for every entry that follows.

Cc1ccc(C(=O)c2cc3ccccc3o2)cc1C = 10.6 µM (active)

For every item in the list below, what is its measured IC50?
1. S=C(Nc1ccc(Cl)cc1)Nc1cccc2cnccc12
2. O=C(O)C(Oc1ccc2cc(-c3ccc(Cl)cc3)c(=O)oc2c1)c1ccccc1 (configuration not stated)
3. O=C(COC(=O)c1ccc([N+](=O)[O-])s1)NCc1ccc(F)cc1
4. CC(=O)Nc1ccc(-c2nc3cc(Cl)ccc3o2)cc1

**A:**
1: 5.49 µM (active); 2: 31.8 µM (active); 3: 3.72 µM (active); 4: > 100 µM (inactive)

For every item in the list below, what is its measured IC50?
1. O=C(Nc1ccc2ncccc2c1)c1cccc(Br)c1
2. CN(C)c1ccc(/C=N/Nc2nc3ccccc3o2)cc1

**A:**
["28.7 µM (active)", "1.74 µM (active)"]
